The reported numbers originate from patent US12390446B2.

Target: NPFF1 receptor (human NPFFR1 in CHO-RD-HGA16 cells) (Homo sapiens)
Construct: expressed in transfected cells
Sequence (Q9GZQ6 whole entry): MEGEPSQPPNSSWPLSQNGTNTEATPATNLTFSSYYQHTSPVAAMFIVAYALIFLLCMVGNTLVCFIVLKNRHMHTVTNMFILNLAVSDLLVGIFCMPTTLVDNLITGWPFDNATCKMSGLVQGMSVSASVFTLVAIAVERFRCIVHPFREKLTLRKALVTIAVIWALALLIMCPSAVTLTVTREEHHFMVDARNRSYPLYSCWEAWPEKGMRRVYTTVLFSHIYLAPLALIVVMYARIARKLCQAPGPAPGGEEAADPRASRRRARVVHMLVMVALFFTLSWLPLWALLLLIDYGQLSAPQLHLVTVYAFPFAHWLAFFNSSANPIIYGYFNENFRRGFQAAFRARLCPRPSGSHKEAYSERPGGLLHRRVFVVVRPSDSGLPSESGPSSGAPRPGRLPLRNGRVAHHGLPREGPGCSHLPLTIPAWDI
Assay: Calcium mobilization functional Ke assay, NPFF1
Format: cell-based
Conditions: Table 3; mean ± SEM; read-out: NPFF1 Ke
Mark YES only for Kb values smaller than 2000 nM; exact matches and larger values are NO.

>>> assigned_class("O=C(NCCc1ccc([N+](=O)[O-])cc1)[C@@H]1C[C@H](NCc2ccc(Cl)cc2)CN1Cc1ccccc1Cl")
"YES"
>>> assigned_class("CCCCCCN[C@H]1C[C@@H](C(=O)NCCc2ccc([N+](=O)[O-])cc2)N(Cc2ccccc2Cl)C1")
"NO"
>>> assigned_class("CCCN[C@H]1C[C@@H](C(=O)NCCc2ccc([N+](=O)[O-])cc2)N(Cc2ccccc2Cl)C1")
"NO"
>>> assigned_class("O=C(NCCc1ccc([N+](=O)[O-])cc1)[C@@H]1C[C@H](NCCc2ccccc2)CN1Cc1ccccc1Cl")
"YES"
>>> assigned_class("O=C(NCCc1ccc([N+](=O)[O-])cc1)[C@@H]1C[C@H](NCc2ccc(F)cc2)CN1Cc1ccccc1Cl")
"YES"
>>> assigned_class("COc1ccc(CN[C@H]2C[C@@H](C(=O)NCCc3ccc([N+](=O)[O-])cc3)N(Cc3ccccc3Cl)C2)cc1OC")
"YES"
